Test system: E. coli TG1 + pBGS18 + DHA-1
Assay: MIC broth microdilution, ceftazidime with or without inhibitor
Format: cell-based, Escherichia coli
Conditions: DHA-1 (Class C, ESBL); inhibitor concentration 16 μg mL^–1
readout_type: MIC of ceftazidime in the presence of inhibitor (μg mL^–1)
Number only, in μg mL^–1; omit the unit.

Quick one: MIC of ceftazidime in the presence of inhibitor for C[C@]1(COC(=O)c2ccncc2O)[C@H](C(=O)[O-])N2C(=O)/C(=C/c3ccccn3)[C@H]2S1(=O)=O.[Na+] [Compound 7] ?
4

Quick one: MIC of ceftazidime in the presence of inhibitor for CC1(C)[C@H](C(=O)[O-])N2C(=O)/C(=C/c3cc(CCCOC(=O)Cc4ccc(O)c(O)c4)ccn3)[C@H]2S1(=O)=O.[Na+] [Compound 8] ?
8

Quick one: MIC of ceftazidime in the presence of inhibitor for C[C@]1(COC(=O)c2cc(Cl)ccc2O)[C@H](C(=O)[O-])N2C(=O)/C(=C/c3ccccn3)[C@H]2S1(=O)=O.[Na+] [Compound 5] ?
0.12
